Overview of recorded apparent KD of MS2 coat protein for various sequences
- Tested on: MS2 coat protein
- ASSAY: apparent KD of MS2 coat protein; designed switch direction (-1 OFF switch, 1 ON switch): 1; higher = weaker reporter binding
- APPLIED_CONDITIONS: Eterna round: R95; input ligand: microRNA oligo, concentration not stated
Your answer should be a plain number; it is taken to be in nM.

SEQUENCE_CHAIN: GAGGCACAUGAGGAUCACCCAUGUGGGCGGAACAUAGGAUAUCGCCAACAAUAAGCCCGGUGAGAAGGAUGAUGCC [Lexereat] (puzzle: Same State 1)
TESTED_TARGET: MS2 coat protein
apparent KD of MS2 coat protein [nM]: 17.6
--
SEQUENCE_CHAIN: AAUUAUUAACAUGAGGAUCACCCAUGUAUUUUUUGCUCGUCAUGUAUUAUUAUUAUUAUUAUUAUUAUUAUUAUUAA [my first RNA] (puzzle: Sensor for hsa-mir-208a version 2)
TESTED_TARGET: MS2 coat protein
apparent KD of MS2 coat protein [nM]: 17.1

Task item: Fill in: apparent KD of MS2 coat protein on MS2 coat protein, entry GGAGGACAUGAGGAUCACCCAUGUGGAUGAUCGCUAGGAUAUGCGUGCGGGAGGAGUGGUGCAGAAGGAGUGGGAU [JR_SS1_Sub049] (puzzle: Same State 1)
Reply: 188

* * *

- System: MS2 coat protein
- ASSAY: apparent KD of MS2 coat protein; designed switch direction (-1 OFF switch, 1 ON switch): -1; higher = weaker reporter binding
- APPLIED_CONDITIONS: Eterna round: R95; input ligand: microRNA oligo, concentration not stated
VALUE_KIND: apparent KD of MS2 coat protein
Note: state the figure and append the unit.

SEQUENCE_CHAIN: GGAAAGGUAGGAUAUACGAAGAAAAAGGGUAGAAUAAUAACACAUGAGGAUCACCCAUGUAGAAGGACCAAAUG [Mat - Exclusion 2 - Mod of my Tesla design - D7] (puzzle: Exclusion 2)
TESTED_TARGET: MS2 coat protein
apparent KD of MS2 coat protein: 37.8 nM

Task item: Note down apparent KD of MS2 coat protein recorded for GGUGCGUAUGUGAGGAUAUGCUGGUCCUUGGAUCGGCAGAAGGUACAUGAGGAUCACCCAUGUGGUGUCGUUCC [salish99_Bmod_ex4_102] (puzzle: Brourd's mod of Exclusion 4)
Reply: 87 nM

Task item: Note down apparent KD of MS2 coat protein recorded for CUCAAACAUGAGGAUCACCCAUGUCAGGAUAUGAUACUAUGUACUUCGGUACAUAGUAUCAGAAGGGAUAUGAA [Ex1-3: 66] (puzzle: Exclusion 1)
Reply: 69.3 nM

* * *

- System: MS2 coat protein
- ASSAY: apparent KD of MS2 coat protein, switch OFF state (with FMN for OFF switches, without FMN for ON switches); designed switch direction (-1 OFF switch, 1 ON switch): -1; higher = weaker reporter binding
- APPLIED_CONDITIONS: FMN input: 0 or 200 uM; Eterna round: R93 (includes R88 designs)
apparent KD of MS2 coat protein vs 80 nM: at or above is true, below is false.

SEQUENCE_CHAIN: CGGGAGUCAGGAUAUACGAACAUGUCGCCAGAUGUCAAGGUACAUGAGGAUCACCCAUGUAGAAGGGAGGAGAG [salish99-Ex2-34]
ASSIGNED_CLASS: false
//
SEQUENCE_CHAIN: AAAUAGUUAGGAUAUACAUGAGGAUCACCCAUGUGCACGUAUGGAGAAUAUGGUAAUGGUAGAAGGGACUAAAA [EX2 Malc#21]
ASSIGNED_CLASS: false
//
SEQUENCE_CHAIN: AGUAGAUCAGGAUAUACGUGAAAGGUCAAAGUGUCACUUCUACAUGAGGAUCACCCAUGUAGAAGGGAUCUACA [Ex2 Design 122: Not so Super Stable 9]
ASSIGNED_CLASS: false
//
SEQUENCE_CHAIN: AAAAACGGAGGAUAUGCAAAAAAAAAAAAAAAAAAAAAAAAACAUGAGGAUCACCCAUGUAGAAGGCCGAAAAA [Diamond]
ASSIGNED_CLASS: false
//
SEQUENCE_CHAIN: AACAGUACAGGAUAUACAUGAGGAUCACCCAUGUGAAAUAAAAGUGGCGUACCACAAAGUAGAAGGGUACUGAA [Mat - Exclusion 3 - JL mod - D27]
ASSIGNED_CLASS: true

Moving on to the next sequence.
Task item: Given AAAAAGAAAGGAUAUACGAACAUGUCAAAAGACGUGAAGGGACAUGAGGAUCACCCAUGUAGAAGGUUCAAAAA [JL Half Open 22] , state whether its apparent KD of MS2 coat protein is at least 80 nM.
Reply: false

* * *

Overview of recorded apparent KD of K4 kissing-loop reporter for various sequences
- Test system: K4 kissing-loop RNA reporter;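 also: bound reporter read as fluorescence of individual clusters on recovered sequencing chips by microscopy, with normalized cluster intensities fitted with a binding model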
- ASSAY: apparent KD of K4 kissing-loop reporter; higher = weaker reporter binding
- APPLIED_CONDITIONS: Eterna round: R107; input ligand: theophylline 20 uM
Your answer should be a plain number; it is taken to be in nM.

Task item: Note down apparent KD of K4 kissing-loop reporter recorded for UUGCUUCUACUAGGAUAUCAUCAGUCAUGUUCAAUGACACUCGAGUGAUGUUCGAUAGAAGCGAGAUGAGAAGGAGUACAAGCAG [FMB B SS t3]
Reply: 118

Task item: Note down apparent KD of K4 kissing-loop reporter recorded for GCUAUGGUAGGAAGGAGCGCUUGCUCGGUCAUAUGAGUGAUGUUCGAGACUGAGCAUUUAUAGCAGGUAGGUCGCCUACUAUAGC [Arginine B K4 9]
Reply: 242

Task item: Note down apparent KD of K4 kissing-loop reporter recorded for UGGAUUAGGACGGCCGCCACUACGCUGGCAUGAGUGAUGUUCUAAGGCUUGUCAAAGAUCCAGAGUAGGACCGGGUCCAAUGACU [theeternabot_exclusion_KL_Trp_B_38]
Reply: 261

* * *

- Test system: MS2 coat protein
- ASSAY: apparent KD of MS2 coat protein, switch OFF state (with FMN for OFF switches, without FMN for ON switches); designed switch direction (-1 OFF switch, 1 ON switch): -1; higher = weaker reporter binding
- APPLIED_CONDITIONS: FMN input: 0 or 200 uM; Eterna round: R93 (includes R88 designs)
VALUE_KIND: apparent KD of MS2 coat protein (nM)
Your answer should be a plain number; it is taken to be in nM.

# example entries with known answers
SEQUENCE_CHAIN: AAGAACCAAGGAUAUACAUGAGGAUCACCCAUGUAAAAGAAAGAAAGGGAAAAGAAAAGUAGAAGGUGGAAGAA [Takelot I]
REPORTED: 32.8
//
SEQUENCE_CHAIN: AACUGACAUGAGGAUCACCCAUGUCAGGAUAUGCUUCUAGGAAAAAAAAAAACUAGAUGCAGAAGGGAUAUGGA [Design 37 :P Sub-opt 13]
REPORTED: 12.1

Proceeding to the next sequence to report its apparent KD of MS2 coat protein.
Task item: Fill in: apparent KD of MS2 coat protein on MS2 coat protein, entry AGCUAGUCAGGAUAUACAAACAUGUCGAAAGACGUGAAGGGACAUGAGGAUCACCCAUGUAGAAGGGACUAGCA [Mod of Janderson's WEB Mod v.2]
Reply: 273

* * *

- System: MS2 coat protein
- ASSAY: apparent KD of MS2 coat protein; higher = weaker reporter binding
- APPLIED_CONDITIONS: Eterna round: R107; input ligand: arginine 13.2 mM
Overview of recorded apparent KD of MS2 coat protein for various sequences

# example entries with known answers
SEQUENCE_CHAIN: UGUACCUAGUCGGCCGCCACUCCAAAAGGAGAGGAUCACCCUCCUAAACGAGUCAAAGACUCGAGGAGGACCGGGACUAGGUACU [Palindromic MS2 #AlternativeMS2 #Palindrome #StaticStem]
VALUE_KIND: apparent KD of MS2 coat protein
REPORTED: 30 nM
--
SEQUENCE_CHAIN: AGAGUCUAGUCGGCCGCCACUCAUGUCCAAAGGACAUGAGGAUCACCCAUGUACCAAUGGUACAUGAGGACCGGGACUGGACUCA [Omei Tryp B SS C v2]
VALUE_KIND: apparent KD of MS2 coat protein
REPORTED: 227 nM
--
SEQUENCE_CHAIN: ACAUGAGGAUCACCCAUGUGUGUAAAUCCUCGAGGACCGGUACGGCCGCCACUCGAACGAGUGUAAGUUGAAUGUAACAUUCAAC [SS Trp A v1]
VALUE_KIND: apparent KD of MS2 coat protein
REPORTED: 47.3 nM
--
SEQUENCE_CHAIN: AGAAUAUAGUCGGCCGCCACUCUACAUACAUGAGGAUCACCCAUGUUUACAUAGUGGAAACACAUGAGGACCGGGACAUAGGCAU [#16 Same State - Tryptophan B]
VALUE_KIND: apparent KD of MS2 coat protein
REPORTED: 8.17 nM
--
SEQUENCE_CHAIN: CUAUAAGUACCGGUCCUCAGAUCCUCAUGACGAGGACCGGUACGGCCGCCACUCGAAACAUGAGGAUCACCCAUGUAAUAACAUU [Brourdmod22]
VALUE_KIND: apparent KD of MS2 coat protein
REPORTED: 18.5 nM
--
SEQUENCE_CHAIN: CGUGAUACUGGUAUACUCUGAAGAUCAAUUCGAGGACCGGUACGGCCGCCACUCGUUAGUAGACAUGAGGAUCACCCAUGUUAGU [theeternabot_exclusion_MS2_Trp_A_48]
VALUE_KIND: apparent KD of MS2 coat protein
REPORTED: 11.8 nM
--
SEQUENCE_CHAIN: CCAUCUUCAUCGGCCGCCACUGAACCAAGGAGACAUGAGGAUCACCCAUGUAUGGGAAACCAUCAUAGGACCGGGAUGAAGGUGG [doubleHookLine]
VALUE_KIND: apparent KD of MS2 coat protein
REPORTED: 36 nM
--
SEQUENCE_CHAIN: AGGACAUCGGGAAGGAGCGCAUCCAAACCACACAUGAGGAUCACCCAUGUAUAAAUAUGCAUGCAGGUAGGUCGCCCGGUGUCUC [Veaza]
VALUE_KIND: apparent KD of MS2 coat protein
REPORTED: 77 nM

Task item: Note down apparent KD of MS2 coat protein recorded for CCUUAACAUGAGGAUCACCCAUGUCUGGAUACCAGAUACAGAUAAAUCCCUUGGCAGCCAAAAUAUGAAAGAAAUAAAAUAAGAA [theeternabot_sameState_MS2_Theo_A_29]
Reply: 27.5 nM

Task item: Note down apparent KD of MS2 coat protein recorded for UAUCCACAUGAGGAUCACCCAUGUAGGGAAGGAGCGGUGGAUGCACCAGGUAGGUCGCCUUGCUGAGGACAGCCGGUGGAUUCGU [Exclusion - Arginine A (Freestyle 27)]
Reply: 29 nM

Task item: Note down apparent KD of MS2 coat protein recorded for GACCUUGCGGGCGCCCGCAAGGUCGCGGAUACCAGCGAGGUCCAUCGCCCUUGGCAGCCGAACAUGAGGAUCACCCAUGUCGGUU [Same State - Theophylline A Attempt #5 (HarryS)]
Reply: 8.39 nM
